PROCEDURE_TEXT: self-splicing fitness, log relative to wild type (ln ratio); higher = more splicing; Tetrahymena group I intron in knt gene, E. coli kanamycin selection, DiMSum; sequences stand for … in CUCUCU…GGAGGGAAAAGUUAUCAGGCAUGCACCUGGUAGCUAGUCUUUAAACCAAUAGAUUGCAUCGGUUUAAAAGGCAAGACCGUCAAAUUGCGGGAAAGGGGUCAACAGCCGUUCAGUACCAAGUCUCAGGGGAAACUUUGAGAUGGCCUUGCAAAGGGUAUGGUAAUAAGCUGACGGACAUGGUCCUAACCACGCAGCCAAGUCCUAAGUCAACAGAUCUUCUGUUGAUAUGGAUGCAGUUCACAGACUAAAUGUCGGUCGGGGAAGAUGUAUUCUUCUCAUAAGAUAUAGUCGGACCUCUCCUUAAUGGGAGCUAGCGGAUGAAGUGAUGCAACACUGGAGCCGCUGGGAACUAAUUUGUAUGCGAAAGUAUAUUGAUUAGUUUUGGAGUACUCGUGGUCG;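 also: selection with 25 µg/mL kanamycin versus none on LB agar overnight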
DETAILS: 37 °C
Returns Condition met if the recorded self-splicing fitness (ln) is greater than or equal to -0.7, and Condition not met otherwise.

[
  {
    "MONOMER_SEQUENCE": "ACCGAGCAAUAUUACGCCCU",
    "CLASS_LABEL": "Condition met"
  },
  {
    "MONOMER_SEQUENCE": "GGAGAGCAAUAUUACGACUU",
    "CLASS_LABEL": "Condition not met"
  },
  {
    "MONOMER_SEQUENCE": "UCUGAGCAAUAUUACGGGUA",
    "CLASS_LABEL": "Condition not met"
  },
  {
    "MONOMER_SEQUENCE": "CGACAGCAAUAUUACGGUGG",
    "CLASS_LABEL": "Condition not met"
  },
  {
    "MONOMER_SEQUENCE": "AGUCAGCAAUAUUACGUUCG",
    "CLASS_LABEL": "Condition not met"
  },
  {
    "MONOMER_SEQUENCE": "ACAUAGCAAUAUUACGACUA",
    "CLASS_LABEL": "Condition met"
  }
]
